The following compounds are shown together with reported DC50 values.
# Assay system: STAT3 (Homo sapiens)
# Construct: expressed in transfected cells; host or cells: A549
# Sequence (P40763 whole entry): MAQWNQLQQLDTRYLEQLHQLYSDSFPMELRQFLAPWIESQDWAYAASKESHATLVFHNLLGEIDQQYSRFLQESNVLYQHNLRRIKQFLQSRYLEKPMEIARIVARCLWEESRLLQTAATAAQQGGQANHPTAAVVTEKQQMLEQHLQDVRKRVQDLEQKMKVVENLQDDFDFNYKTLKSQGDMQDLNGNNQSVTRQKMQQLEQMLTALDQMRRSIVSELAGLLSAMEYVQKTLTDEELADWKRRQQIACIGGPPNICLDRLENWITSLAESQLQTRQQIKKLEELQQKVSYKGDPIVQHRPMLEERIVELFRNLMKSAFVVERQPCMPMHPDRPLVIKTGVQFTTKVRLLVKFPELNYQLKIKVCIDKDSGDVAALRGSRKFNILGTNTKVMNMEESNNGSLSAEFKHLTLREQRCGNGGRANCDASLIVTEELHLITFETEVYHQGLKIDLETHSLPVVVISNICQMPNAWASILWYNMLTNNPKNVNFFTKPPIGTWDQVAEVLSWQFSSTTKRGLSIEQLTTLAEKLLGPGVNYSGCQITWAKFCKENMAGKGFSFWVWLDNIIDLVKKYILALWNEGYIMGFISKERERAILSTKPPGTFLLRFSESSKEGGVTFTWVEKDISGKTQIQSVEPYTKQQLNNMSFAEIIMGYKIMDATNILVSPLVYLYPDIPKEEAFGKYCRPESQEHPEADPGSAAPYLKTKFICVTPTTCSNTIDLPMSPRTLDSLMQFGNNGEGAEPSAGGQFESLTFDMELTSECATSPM
# Test description: STAT3 HiBiT degradation assay (Nano-Glo HiBiT lytic detection) in transfected A549 cells
# Assay type: cell-based
# Particulars: 24 h compound incubation, read-out: STAT3 HiBIT A549 degradation 24 h: Average external-Abs DC50

[
  {
    "Compound": "C[C@H](CCC(N)=O)NC(=O)[C@@H]1CC[C@@H]2CCN(C(=O)C[C@H]3CC[C@@H](Cc4ccc5c(c4)n(C)c(=O)n5C4CCC(=O)NC4=O)CC3)C[C@H](NC(=O)c3cc4cc(C(=O)P(=O)(O)O)ccc4[nH]3)C(=O)N21 (some centres unmarked)",
    "DC50": "100 to 1000 nM"
  }
]

Enquiry: Name the recorded DC50 for Cc1ncsc1-c1ccc([C@H](C)NC(=O)[C@@H]2C[C@@H](O)CN2C(=O)[C@@H](NC(=O)CCCc2cccc(OC[C@H](CCC(N)=O)NC(=O)[C@@H]3CCCN3C(=O)[C@@H](NC(=O)c3cc4cc(C(=O)P(=O)(O)O)ccc4[nH]3)C3CCCCC3)c2Cl)C(C)(C)C)cc1 .
Return: 10 to 100 nM

Enquiry: Please answer likewise for Cc1ncsc1-c1ccc([C@H](C)NC(=O)[C@@H]2C[C@@H](O)CN2C(=O)[C@@H](NC(=O)CCCc2cccc(OC[C@H](CCC(N)=O)NC(=O)[C@@H]3CCCN3C(=O)[C@H](CO)NC(=O)c3cc4cc(C(=O)P(=O)(O)O)ccc4[nH]3)c2Cl)C(C)(C)C)cc1
Return: 10 to 100 nM

Enquiry: Please answer likewise for Cn1c(=O)n(C2CCC(=O)NC2=O)c2ccc(C[C@H]3CC[C@@H](CC(=O)N4CC[C@H]5CC[C@@H](C(=O)N[C@@H](CCC(N)=O)C(=O)NCc6ccc(S(C)(=O)=O)cc6Cl)N5C(=O)[C@@H](NC(=O)c5cc6cc(C(=O)P(=O)(O)O)ccc6[nH]5)C4)CC3)cc21 (some centres unmarked)
Return: 10 to 100 nM

Enquiry: Please answer likewise for Cn1c(=O)n(C2CCC(=O)NC2=O)c2ccc(C[C@H]3CC[C@@H](CC(=O)N4CC[C@H]5CC[C@@H](C(=O)N[C@@H](CCC(N)=O)C(=O)NCc6ccc(S(C)(=O)=O)cc6)N5C(=O)[C@@H](NC(=O)c5cc6cc(C(=O)O)ccc6[nH]5)C4)CC3)cc21 (some centres unmarked)
Return: > 1000 nM

Enquiry: Please answer likewise for CN1C(=O)CCC(n2c(=O)n(C)c3cc(C[C@H]4CC[C@@H](CC(=O)N5CC[C@H]6CC[C@@H](C(=O)N[C@@H](CCC(N)=O)C(=O)NC(c7ccccc7)c7ccccc7)N6C(=O)[C@@H](NC(=O)c6cc7cc(C(=O)P(=O)(O)O)ccc7[nH]6)C5)CC4)ccc32)C1=O (some centres unmarked)
Return: > 1000 nM

Enquiry: Please answer likewise for C[C@H](CCC(N)=O)NC(=O)[C@@H]1Cc2cc(CCCCCCc3ccc4c(c3)n(C)c(=O)n4C3CCC(=O)NC3=O)cc3c2N1C(=O)[C@@H](NC(=O)c1cc2cc(C(=O)P(=O)(O)O)ccc2[nH]1)CC3 (some centres unmarked)
Return: 10 to 100 nM

Enquiry: Please answer likewise for CC(=O)N1CC[C@H]2CC[C@@H](C(=O)N[C@@H](CCC(N)=O)COc3cccc(CCCC(=O)N[C@H](C(=O)N4C[C@@H](O)C[C@H]4C(=O)N[C@@H](C)c4ccc(-c5scnc5C)cc4)C(C)(C)C)c3Cl)N2C(=O)[C@@H](NC(=O)c2cc3cc(C(=O)P(=O)(O)O)ccc3[nH]2)C1
Return: > 1000 nM
